# target-or-test-system: SFN 14-3-3 (14-3-3 protein sigma) (human) (UniProt P31947)
# Sequence (P31947 whole entry): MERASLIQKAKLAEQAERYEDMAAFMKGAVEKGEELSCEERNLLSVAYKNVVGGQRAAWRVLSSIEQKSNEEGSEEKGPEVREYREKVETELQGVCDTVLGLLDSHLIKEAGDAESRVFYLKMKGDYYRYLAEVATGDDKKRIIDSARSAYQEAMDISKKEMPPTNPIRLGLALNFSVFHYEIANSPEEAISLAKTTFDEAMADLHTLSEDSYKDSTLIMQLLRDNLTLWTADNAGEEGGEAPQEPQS
# assay-comment: fluorescence polarisation; direct saturation binding: protein in serial dilution, FITC-labelled probe peptide fixed (master mix 10 nM probe, 2 mM DTT); 50 mM KPO4 or NaPO4 pH 7.5; quadratic fit
pKd: −log10 of the molar value. [ ]: non-standard residue; d: D form. The star is where a group is joined. FITC = O=C1OC2(c3ccc(O)cc3Oc3cc(O)ccc32)c2ccc(NC(=S)*)cc21; pS = N[C@@H](COP(=O)(O)O)C(=O)O
observed-property: pKd

{"binder": "{FITC}-QRST[pS]TPNVH-NH2 [FITC-RAF phosphopeptide probe]", "observed-property": "pKd", "result-number": 3.28}
